Measured TGI accompanies every entry in the list below.
- Test system: SK-MEL-2 melanoma
- Test Method Notes: NCI tumour cell line growth inhibition, 48 h

[
  {
    "Compound": "CCC[CH2][Sn]([CH2]CCC)([O]C(=O)C1CCC(=O)N1)[O]C(=O)C1CCC(=O)N1 (configuration not stated)",
    "Measured Quantity": "TGI",
    "Value Observed": "0.367 µM"
  },
  {
    "Compound": "O=c1cc(-c2ccccc2)oc2cc(OCCSCCCCCCCCCCSCCOc3ccc4c(=O)cc(-c5ccccc5)oc4c3)ccc12",
    "Measured Quantity": "TGI",
    "Value Observed": "> 100 µM"
  },
  {
    "Compound": "CC(=O)OCC1O[C@@H]([S-])C(OC(C)=O)[C@H](OC(C)=O)[C@@H]1OC(C)=O.[Au+].c1ccc(CN2[CH-]N(Cc3ccccc3)C(c3ccccc3)=C2c2ccccc2)cc1",
    "Measured Quantity": "TGI",
    "Value Observed": "3.43 µM"
  },
  {
    "Compound": "OC1CN2Cc3cc4c(cc3[C@]13C=C[C@@H](O)CC23)OCO4 (some centres not stated)",
    "Measured Quantity": "TGI",
    "Value Observed": "> 100 µM"
  },
  {
    "Compound": "CCOC(=O)NC(=O)c1cn(CCN2CCN(C(=O)CCCCCCCCCCNc3ncnc4nc[nH]c34)CC2)c(=O)[nH]c1=O",
    "Measured Quantity": "TGI",
    "Value Observed": "> 100 µM"
  },
  {
    "Compound": "O=[N+]([O-])c1ccc2ncccc2c1Cl",
    "Measured Quantity": "TGI",
    "Value Observed": "30.5 µM"
  },
  {
    "Compound": "COC(=O)C(Cc1nc2ccc(Cl)cc2[nH]c1=O)/C(=N/NC(N)=O)C(=O)Nc1ccc(Cl)cc1 (configuration not stated)",
    "Measured Quantity": "TGI",
    "Value Observed": "> 100 µM"
  },
  {
    "Compound": "O=C(c1ccccc1)c1sc2c(=O)c(C(=O)c3ccccc3)c(C(=O)c3ccccc3)sc2c(=O)c1C(=O)c1ccccc1",
    "Measured Quantity": "TGI",
    "Value Observed": "> 100 µM"
  }
]

I'm curious: which TGI was measured for C=CC[C@@]1(C)CCCCCCCCC[C@@](C)(CC=C)C1=O tested on SK-MEL-2 melanoma? 37.9 µM

I'm curious: which TGI was measured for CN(C[C@@H]1COCCO1)S(=O)(=O)Nc1ccc2ccc3ncc(-c4cnn(C)c4)cc3c(=O)c2c1 tested on SK-MEL-2 melanoma? > 29.4 µM

I'm curious: which TGI was measured for O=C1NC(N2CCCC(CO)C2)=N/C1=C\c1ccc(Cl)cc1 (configuration not stated) tested on SK-MEL-2 melanoma? > 100 µM

====

- Tested on: SK-OV-3 ovarian
- Test Method Notes: NCI tumour cell line growth inhibition, 48 h
Measured Quantity: TGI

Quick check: TGI of CCOC(=O)NC(=O)c1cn(CCN2CCN(C(=O)CCCCCCCCCCNc3ncnc4nc[nH]c34)CC2)c(=O)[nH]c1=O ? > 100 µM

Quick check: TGI of NCCN1CC2CCC(CC2)C1 ? > 10 µM

Quick check: TGI of CSc1nc2[nH]c(=O)c(C)nc2c(=O)[nH]1 ? > 100 µM

// provenance: PubChem BioAssay (NCI)
